system: 293T cells; assay: Cytotoxicity test (CCK-8 cell viability) in 293T cells; assay type: cell-based, human; conditions: 10 uM, 24 hours co-incubation, 293T cell line, % of control

# LINE_NOTATION, TEST_SYSTEM, Cell viability test results (CCK) 10 uM, %<
records = [
    ("O=C(NO)[C@@H]1CCCN1C(=O)c1ccccc1", "293T cells", 99),
    ("COc1ccc(CC(=O)N2C[C@H](C(=O)O)CC[C@@H]2C)cc1", "293T cells", 90),
    ("C[C@H]1CC[C@@H](C(=O)O)CN1C(=O)Cc1ccco1", "293T cells", 90),
]

====

tested on: 293T cells; assay: Cytotoxicity test (CCK-8 cell viability) in 293T cells; type: cell-based, human; conditions: 10 uM, 24 hours co-incubation, 293T cell line, % of control
# Cell viability test results (CCK) 10 uM annotations

# LINE_NOTATION, Cell viability test results (CCK) 10 uM (%<)
records = [
    ("C[C@H]1CC[C@@H](C(=O)O)CN1C(=O)Cc1cccs1", 90),
    ("C[C@H]1CCCCN1C(=O)Cc1ccccc1", 95),
    ("O=C(NO)[C@H]1CCCN1C(=O)c1ccccc1", 90),
    ("C[C@H]1CC[C@@H](C(=O)O)CN1C(=O)Cc1ccc(F)cc1", 90),
    ("C[C@H]1CC[C@@H](C(=O)O)CN1C(=O)c1ccc(F)cc1Cl", 95),
]

====

test system: 293T cells; assay: Cytotoxicity test (CCK-8 cell viability) in 293T cells; type: cell-based, human; details: 100 uM, 24 hours co-incubation, 293T cell line, % of control
QUANTITY_MEASURED: Cell viability test results (CCK) 100 uM (%<)

# COMPOUND, QUANTITATIVE_READOUT
measured = [
    ("C[C@H]1CC[C@@H](C(=O)O)CN1C(=O)Cc1cncnc1 [BnH12040]", 80),
    ("C[C@H]1CC[C@@H](C(=O)O)CN1C(=O)Cc1ccc(O)cc1 [BnH12079]", 90),
    ("COc1ccc(CC(=O)N2C[C@H](C(=O)O)CC[C@@H]2C)cn1 [BnH12075]", 99),
    ("C[C@@H]1CC[C@H](C(=O)O)CN1C(=O)Cc1ccccc1 [BnH12062]", 75),
    ("C[C@H]1CC[C@@H](C(N)=O)CN1C(=O)Cc1ccc(F)cc1Cl [BnH12022]", 99),
]

====

test system: 293T cells; test: Cytotoxicity test (CCK-8 cell viability) in 293T cells; format: cell-based, human; settings: 100 uM, 24 hours co-incubation, 293T cell line, % of control

# LINE_NOTATION, Cell viability test results (CCK) 100 uM / %<
rows = [
    ("C[C@H]1CC[C@@H](C(=O)O)CN1C(=O)Cc1cccc(N)c1", 80),
    ("C[C@H]1CC[C@@H](C(=O)O)CN1C(=O)Cc1ccc(C(C)(C)C)cc1", 80),
    ("O=C(O)[C@H]1CCCN1C(=O)Cc1ccc(F)cc1Cl", 90),
    ("C[C@H]1CC[C@@H](C(=O)O)CN1C(=O)Cc1ccccc1", 95),
    ("C[C@H]1CC[C@@H](C(=O)O)CN1C(=O)c1ccc(F)cc1Cl", 95),
    ("O=C(NO)[C@@H]1CCCN1C(=O)c1ccccc1", 90),
    ("C[C@H]1CC[C@@H](C(=O)NO)CN1C(=O)Cc1ccc(F)cc1Cl", 90),
    ("C[C@H]1CC[C@@H](C(=O)O)CN1C(=O)Cc1ncccn1", 70),
    ("C[C@H]1CC[C@@H](C(=O)[O-])CN1C(=O)Cc1ccncc1.[Na+]", 65),
]
